# TESTED_TARGET: T1, KDR (VEGFR-2, Flk-1), full-length receptor on cells (human, UniProt P35968 20-1356)
# T1 construct: whole, on cells; endogenous on HUVECs in the functional assays; also called VEGF receptor 2
# T1 sequence (P35968 20-1356): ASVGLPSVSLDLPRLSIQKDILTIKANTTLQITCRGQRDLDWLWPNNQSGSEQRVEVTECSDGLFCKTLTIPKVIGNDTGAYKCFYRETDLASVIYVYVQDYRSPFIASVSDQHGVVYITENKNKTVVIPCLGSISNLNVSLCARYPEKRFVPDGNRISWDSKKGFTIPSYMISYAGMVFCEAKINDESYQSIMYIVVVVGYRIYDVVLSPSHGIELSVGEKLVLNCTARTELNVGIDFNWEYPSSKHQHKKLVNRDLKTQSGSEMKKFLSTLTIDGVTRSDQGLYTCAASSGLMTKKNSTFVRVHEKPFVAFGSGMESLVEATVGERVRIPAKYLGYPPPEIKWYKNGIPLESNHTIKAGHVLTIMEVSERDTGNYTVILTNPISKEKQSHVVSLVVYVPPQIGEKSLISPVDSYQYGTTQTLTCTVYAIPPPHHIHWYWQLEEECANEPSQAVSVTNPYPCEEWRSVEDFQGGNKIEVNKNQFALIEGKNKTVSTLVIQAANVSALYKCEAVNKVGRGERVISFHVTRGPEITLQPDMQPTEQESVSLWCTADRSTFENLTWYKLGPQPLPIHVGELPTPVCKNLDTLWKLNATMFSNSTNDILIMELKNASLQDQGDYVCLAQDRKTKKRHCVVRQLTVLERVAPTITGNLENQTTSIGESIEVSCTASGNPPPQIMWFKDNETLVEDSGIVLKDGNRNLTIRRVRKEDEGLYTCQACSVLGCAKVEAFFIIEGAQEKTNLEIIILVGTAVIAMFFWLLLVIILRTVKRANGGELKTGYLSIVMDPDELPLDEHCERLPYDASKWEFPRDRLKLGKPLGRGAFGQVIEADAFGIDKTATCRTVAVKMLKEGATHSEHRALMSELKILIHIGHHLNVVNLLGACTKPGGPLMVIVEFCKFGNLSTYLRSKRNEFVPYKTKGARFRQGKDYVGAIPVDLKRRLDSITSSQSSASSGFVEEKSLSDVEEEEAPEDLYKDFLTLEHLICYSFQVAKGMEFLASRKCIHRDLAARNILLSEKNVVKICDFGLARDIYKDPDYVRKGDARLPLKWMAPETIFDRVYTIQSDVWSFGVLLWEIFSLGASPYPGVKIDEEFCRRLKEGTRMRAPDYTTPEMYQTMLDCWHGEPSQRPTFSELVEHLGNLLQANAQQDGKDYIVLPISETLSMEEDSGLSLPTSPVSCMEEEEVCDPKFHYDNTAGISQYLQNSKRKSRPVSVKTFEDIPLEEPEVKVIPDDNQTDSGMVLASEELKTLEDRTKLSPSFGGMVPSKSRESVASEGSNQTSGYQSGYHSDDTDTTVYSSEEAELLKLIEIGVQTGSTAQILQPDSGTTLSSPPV
# TEST_PROTOCOL: displacement of P12-XB/streptavidin-HRP complex (5.5 nM) from KDR-expressing cells
RECORDED_METRIC: IC50
Your answer should be a number followed by the unit of measure.

Req: # input binder: Ac-DWYYGGGK-NH2 [F1] ; wanted: its IC50
Resp: 850 nM
